- study-system: human histamine H4 receptor (Homo sapiens, UniProt Q9H3N8)
- Construct: cell membranes
- Sequence (Q9H3N8 whole entry): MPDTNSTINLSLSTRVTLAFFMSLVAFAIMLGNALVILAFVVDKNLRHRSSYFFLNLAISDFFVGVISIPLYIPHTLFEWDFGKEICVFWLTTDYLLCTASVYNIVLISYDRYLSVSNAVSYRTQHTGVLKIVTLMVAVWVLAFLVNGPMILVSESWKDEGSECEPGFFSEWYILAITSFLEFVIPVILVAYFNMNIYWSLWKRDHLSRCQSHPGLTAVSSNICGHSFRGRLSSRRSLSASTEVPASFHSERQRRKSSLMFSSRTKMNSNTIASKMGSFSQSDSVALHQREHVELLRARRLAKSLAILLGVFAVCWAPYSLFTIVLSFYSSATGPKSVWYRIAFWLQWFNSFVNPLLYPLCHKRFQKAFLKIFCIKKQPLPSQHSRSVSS
- experiment-description: Binding Assay on Recombinant Human Histamine H4 Receptor
- particulars: competition binding with 3H-histamine (5 nM; KD 5 nM), membranes of SK-N-MC or COS7 cells expressing human H4 receptor; average of results; > = highest value tested
Please respond with reported Ki for every item in the list.
One number for each entry, in µM.

Worked cases, answers included:
### Prompt For the molecule shown here, "Cc1ccc2[nH]c(-c3ccc4c(ccn4CCCN4CCNCC4)c3)nc2c1C" , give the reported Ki.
### Response 1.31

### Prompt And what about the molecule "Cc1ccc2[nH]c(-c3cccc4c3c(Cl)cn4CCCCC3CCN(C)CC3)nc2c1C" ?
### Response 1.67

### Prompt And then "Cc1cc(C)c2nc(-c3ccc4c(ccn4CCCC4CCN(C)CC4)c3)[nH]c2c1" , what is it?
### Response 0.135

### Prompt Moving on to the next molecule: "Cc1cccc2[nH]c(-c3cccc4c3ccn4CCCCC3CCN(C)CC3)nc12"
### Response 0.098

### Prompt Now consider "Clc1ccc2[nH]c(-c3ccc4c(ccn4CCCN4CCNCC4)c3)nc2c1" and answer again.
### Response 1.52

---
### Prompt Quick one: Ki for "Cc1c(F)ccc2[nH]c(-c3cccc4c3ccn4CCCCC3CCN(C)CC3)nc12" ?
### Response 0.023

----------
- study-system: human histamine H4 receptor (Homo sapiens, UniProt Q9H3N8)
- Construct: cell membranes
- experiment-description: Binding Assay on Recombinant Human Histamine H4 Receptor
- particulars: competition binding with 3H-histamine (5 nM; KD 5 nM), membranes of SK-N-MC or COS7 cells expressing human H4 receptor; average of results; > = highest value tested
pKi: −log10 of the molar value.
Using pKi as the sorting value, the categories are lowest: < 6; middle: ≥ 6 and < 7; highest: ≥ 7

# example entries with known answers
### Prompt Class (by measured pKi) for "Cc1cccc2[nH]c(-c3ccc4ncn(CCCCC5CCN(C)CC5)c4c3)nc12"
### Response lowest

### Prompt // repeat for "Cc1ccc2[nH]c(-c3ccc4ncn(CCCCC5CCN(C)CC5)c4c3)nc2c1C" and report
### Response lowest

### Prompt Subsequent entry: "O=C(c1ccccc1)c1ccc2[nH]c(-c3cccc4c3ccn4CCCCC3CCNCC3)nc2c1"
### Response lowest

---
### Prompt Please indicate the class for Cc1nc(-c2ccc3c(ncn3CCCC3CCN(C)CC3)c2C)[nH]c1-c1ccc(C(F)(F)F)cc1 [Example 82] based on its pKi.
### Response highest

### Prompt // query: "Cc1cccc2[nH]c(-c3ccc4ncn(CCCCC5CCNCC5)c4c3)nc12"
### Response lowest

### Prompt Also "Clc1ccc2[nH]c(-c3ccc4c(c3)CCN4CCCC3CCNCC3)nc2c1" , if possible.
### Response middle

### Prompt Then what about the compound "Cc1ccc2[nH]c(-c3ccc4c(ncn4CCCC4CCNCC4)c3C)nc2c1C" ?
### Response middle

### Prompt Now consider "Cc1c(F)ccc2[nH]c(-c3ccc4c(ccn4CCCC4CCN(C)CC4)c3Cl)nc12" and answer again.
### Response highest

### Prompt Another compound to look at: "Cc1c(F)ccc2[nH]c(-c3cc4ccn(CCCC5CCN(C)CC5)c4cc3Cl)nc12"
### Response lowest

### Prompt Entry to check: "Clc1ccc2nc(-c3cccc4c3ccn4CCCCC3CCNCC3)[nH]c2c1"
### Response lowest

### Prompt Now try "Cc1nc(-c2ccc3c(ncn3CCCC3CCN(C)CC3)c2C)[nH]c1-c1cc(Cl)cc(Cl)c1" .
### Response highest

### Prompt Do the same for Cc1nc(-c2ccc3c(ncn3CCCC3CCN(C)CC3)c2C)[nH]c1-c1ccc(C(F)(F)F)cc1 [Example 142] please
### Response highest

### Prompt // repeat for "COc1ccc(-c2[nH]c(-c3ccc4c(ncn4CCCC4CCN(C)CC4)c3C)nc2C)cc1" and report
### Response highest

### Prompt Moving on to the next compound: "Cc1cccc2[nH]c(-c3ccc4c(ncn4CCCC4CCNCC4)c3C)nc12"
### Response middle

### Prompt Also check "Cc1ccc2[nH]c(-c3ccc4ncn(CCCCC5CCNCC5)c4c3)nc2c1C"
### Response lowest
